Tested on: HeLa cells
TEST PROTOCOL: MTS cell proliferation and/or cytotoxicity assay
Format: cell-based, Human
STATED CONDITIONS: Homo sapiens, HeLa, 72 h, concentration at which 50% of antiproliferative cell response is seen; 3 days incubation; read-out: MTS Data Hella
Text: Cell culture. Human cervical epithelial cells (HeLa cells) were obtained from American Type Culture Collection (Manassas, Va.). […] MTS assays. […] The absorbance was read at 490 nm using FLUOstar Galaxy 96 well plate reader (BMG Labtechnologies, Germany). μM concentrations (MTS data) reported in Table 1 are concentrations at which 50% of antiproliferative cell response is seen.
Exercise: state measured pIC50 for each of the compounds provided.
Give only the number. pIC50 is defined as minus log10 of concentration in molar units.

Per the record, O=C(N[C@H]1C(O)O[C@H](CO)[C@H](O)[C@@H]1O)c1cn2c3c(c(NCCCN4CCOCC4)c(F)cc3c1=O)Oc1cc3c(cc1-2)oc1ccccc13 (stereo partly drawn) [compound 37] has pIC50 of 5.55

Entry CN1CCCC1CCNC(=O)c1cn2c3cc4c(cc3oc3c(N5CC[C@H](N)C5)c(F)cc(c1=O)c32)c(=O)c1ccccc14 (stereo partly drawn) [compound 582] ; pIC50 = 6.55

Sure, the documented pIC50 for CN(C)CCCCNC(=O)c1cn2c3cc4c(cc3oc3c(NCCCCN(C)C)c(F)cc(c1=O)c32)c(=O)c1ccccc14 [compound 576] is 5.68

Form field pIC50, entry O=C(NCCN1CCCC1)c1cn2c3cc4oc5cc([N+](=O)[O-])ccc5[nH]c4cc3oc3c(NCCN4CCCC4)c(F)cc(c1=O)c32 [compound 479] : 5.13

Query CC1(C)CC(NC(=O)c2cn3c4c(c(N5CC6CCCNC6C5)c(F)cc4c2=O)Oc2cc4ccccc4cc2-3)CC(C)(C)N1 (stereo not drawn) [compound 487] yields pIC50 of 6.74

The recorded pIC50 for CN1CCC(Nc2c(F)cc3c(=O)c(C(=O)NCCC4CCCN4C)cn4c3c2Oc2cc3ccccc3cc2-4)CC1 (stereo not drawn) [compound 388] is 6.51
